experimentalSystem: recombinant purified ABL SH3 domain alone (human)
Sequence (chain, as listed by the source): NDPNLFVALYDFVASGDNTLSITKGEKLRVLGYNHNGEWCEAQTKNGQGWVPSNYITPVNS
No end group written: not given here. *: point of attachment. 6FAM = O=C1OC2(c3ccc(O)cc3Oc3cc(O)ccc32)c2cc(C(=O)*)ccc21
propertyName: Kd (nM)

| binder | unitLabel | readoutValue |
| --- | --- | --- |
| 6FAM-APTMPPPLPP [3BP-1 probe peptide, labeled with 6-carboxyfluorescein] | nM | 34000 |
| 6FAM-APTYPPPLPP [p40 probe peptide, labeled with 6-carboxyfluorescein] | nM | 400 |
| APSYSPPPPP [unlabeled p41 peptide] | nM | 1500 |

Sourced from paper PMC4519180
